- System: Candida albicans
- Test Summary: Antifungal activity against Candida albicans NCPF 90028 assessed as fungal growth inhibition at 50 ug/ml by CLSI protocol based assay
- Type: functional, organism-based
- Condition Set: dose 50.0 µg/ml
The source made the active and inactive calls. The rule behind the calls is not given here.
Parameter Measured: Activity

Look over these answered cases.
C/C=C(\C)c1c(Cl)c(O)c(C)c2c1Oc1c(Cl)c(O)c(Cl)c(C)c1C(=O)O2; inactive
COC(=O)c1c(C)cc(O)cc1O [METHYL ORSELLINATE]; inactive
C/C=C(\C)c1cc(O)c(C)c2c1Oc1c(C)c(O)cc(/C(C)=C/C)c1C(=O)O2; inactive
C/C=C(\C)c1cc(O)c(C)c(O)c1C(=O)Oc1cc2c(c(O)c1C)C(=O)O[C@@]2(C)CC; inactive
C/C=C(\C)c1c2c(c(C)c(O)c1C(=O)O)OC(=O)c1c(C)cc(O)cc1O2; inactive
C/C=C(\C)c1c(Cl)c(OC)c(C)c2c1Oc1c(Cl)c(O)c(Cl)c(C)c1C(=O)O2; inactive

Write down the reported Activity of C/C=C(\C)c1cc(O)c(C)c2c1C(=O)Oc1c(C)c(O)c(Cl)c(/C(C)=C/C)c1O2 , test system: Candida albicans.
inactive

Write down the reported Activity of C/C=C(\C)c1cc(O)c(C)c2c1C(=O)Oc1c(C)c(O)c(C(=O)O)c(/C(C)=C/C)c1O2 , test system: Candida albicans.
inactive

Write down the reported Activity of C/C=C(\C)c1cc(O)c(C)c2c1Oc1cc(O)cc(C)c1C(=O)O2 , test system: Candida albicans.
inactive

Write down the reported Activity of C/C=C(\C)c1cc(OC(=O)c2c(C)cc(O)cc2O)c(C)c(O)c1C(=O)O , test system: Candida albicans.
inactive
